- TARGET_OR_TEST_SYSTEM: GSPT1 (Homo sapiens, UniProt P15170+Q96SW2)
- Sequence (P15170 whole entry): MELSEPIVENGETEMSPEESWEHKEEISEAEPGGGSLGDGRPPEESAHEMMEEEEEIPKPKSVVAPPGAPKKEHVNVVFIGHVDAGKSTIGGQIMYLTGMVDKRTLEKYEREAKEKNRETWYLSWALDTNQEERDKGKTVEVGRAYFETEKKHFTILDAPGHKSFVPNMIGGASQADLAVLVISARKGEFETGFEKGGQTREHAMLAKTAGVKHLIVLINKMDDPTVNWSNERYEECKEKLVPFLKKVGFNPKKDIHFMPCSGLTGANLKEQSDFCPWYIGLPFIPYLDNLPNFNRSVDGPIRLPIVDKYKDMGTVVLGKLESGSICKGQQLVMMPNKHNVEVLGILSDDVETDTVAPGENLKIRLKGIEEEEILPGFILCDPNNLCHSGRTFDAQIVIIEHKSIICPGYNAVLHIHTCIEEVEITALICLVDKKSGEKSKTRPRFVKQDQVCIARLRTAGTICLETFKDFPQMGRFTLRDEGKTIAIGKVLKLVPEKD
- Sequence (Q96SW2 whole entry): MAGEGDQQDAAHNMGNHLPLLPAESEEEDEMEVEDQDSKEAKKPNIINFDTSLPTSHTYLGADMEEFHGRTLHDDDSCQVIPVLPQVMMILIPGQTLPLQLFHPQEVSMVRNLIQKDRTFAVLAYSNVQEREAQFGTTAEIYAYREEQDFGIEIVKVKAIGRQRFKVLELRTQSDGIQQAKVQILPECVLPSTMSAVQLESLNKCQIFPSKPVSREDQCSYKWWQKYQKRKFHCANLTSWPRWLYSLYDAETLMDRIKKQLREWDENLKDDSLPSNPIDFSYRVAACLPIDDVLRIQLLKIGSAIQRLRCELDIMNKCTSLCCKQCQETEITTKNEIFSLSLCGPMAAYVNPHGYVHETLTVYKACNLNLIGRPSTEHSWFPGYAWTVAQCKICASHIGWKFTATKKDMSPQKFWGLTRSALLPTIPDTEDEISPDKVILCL
- Sequence (Q16531 whole entry partner): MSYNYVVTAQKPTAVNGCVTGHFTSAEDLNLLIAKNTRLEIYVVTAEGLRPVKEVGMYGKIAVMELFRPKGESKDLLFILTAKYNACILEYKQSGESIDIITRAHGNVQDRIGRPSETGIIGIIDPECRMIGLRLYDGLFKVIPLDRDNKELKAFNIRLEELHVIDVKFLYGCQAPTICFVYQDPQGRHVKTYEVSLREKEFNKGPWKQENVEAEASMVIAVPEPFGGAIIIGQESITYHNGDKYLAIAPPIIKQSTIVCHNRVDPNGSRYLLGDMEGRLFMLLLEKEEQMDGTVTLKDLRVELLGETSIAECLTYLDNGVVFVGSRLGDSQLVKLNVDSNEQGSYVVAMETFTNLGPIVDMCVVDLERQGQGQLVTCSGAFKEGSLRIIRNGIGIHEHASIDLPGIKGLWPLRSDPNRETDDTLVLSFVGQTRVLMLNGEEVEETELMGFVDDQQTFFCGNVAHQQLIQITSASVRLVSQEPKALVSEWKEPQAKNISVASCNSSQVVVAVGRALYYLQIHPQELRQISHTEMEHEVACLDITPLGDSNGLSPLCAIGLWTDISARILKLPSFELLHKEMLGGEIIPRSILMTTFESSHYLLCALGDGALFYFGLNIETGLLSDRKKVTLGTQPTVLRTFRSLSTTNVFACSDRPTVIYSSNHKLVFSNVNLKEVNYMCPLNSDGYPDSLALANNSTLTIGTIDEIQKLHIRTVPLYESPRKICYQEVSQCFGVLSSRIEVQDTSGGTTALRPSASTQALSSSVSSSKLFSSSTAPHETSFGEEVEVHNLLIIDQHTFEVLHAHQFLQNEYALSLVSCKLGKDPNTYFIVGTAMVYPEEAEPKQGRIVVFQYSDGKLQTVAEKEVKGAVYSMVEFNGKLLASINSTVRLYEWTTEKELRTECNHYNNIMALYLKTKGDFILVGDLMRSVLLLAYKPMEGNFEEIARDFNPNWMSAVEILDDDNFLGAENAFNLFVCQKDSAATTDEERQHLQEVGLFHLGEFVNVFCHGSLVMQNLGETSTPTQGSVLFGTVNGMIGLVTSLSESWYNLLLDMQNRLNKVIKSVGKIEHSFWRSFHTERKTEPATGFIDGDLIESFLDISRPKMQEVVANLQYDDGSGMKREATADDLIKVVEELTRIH
- ASSAY_PROCEDURE: HiBiT degradation assay, GSPT1, Procedure A
- Type: cell-based
- Design: HiBit-GSPT1 KI HEK293(LgBit) Cells; host or cells: HEK293(LgBit) knock-in cells
- RUN_CONDITIONS: six hours incubation
ENDPOINT_NAME: DC50

| MOLECULE | ENDPOINT_NAME | VALUE_REPORTED |
| --- | --- | --- |
| COc1c(F)cccc1-c1c(-c2ccc3c(c2)CN(C2CCC(=O)NC2=O)C3=O)ncn1C (centres unmarked) | DC50 | < 25 nM |
| Cn1cnc(-c2ccc3c(c2)CN(C2CCC(=O)NC2=O)C3=O)c1-c1ccc(Cl)cc1Cl (centres unmarked) | DC50 | < 25 nM |
| COc1ccc2cc(-c3c(-c4ccc5c(c4)CN(C4CCC(=O)NC4=O)C5=O)cnn3C)ccc2c1 (centres unmarked) | DC50 | < 25 nM |
| CN(C)C(=O)c1cccc(-c2c(-c3ccc4c(c3)CN(C3CCC(=O)NC3=O)C4=O)ncn2C)c1 (centres unmarked) | DC50 | ≥ 25 nM |
| Cn1ncc(-c2ccc3c(c2)CN(C2CCC(=O)NC2=O)C3=O)c1-c1ccc(OC(F)(F)F)cc1 (centres unmarked) | DC50 | < 25 nM |
| Cc1c(-c2ccc3c(c2)CN(C2CCC(=O)NC2=O)C3=O)nn(C)c1-c1ccccc1 (centres unmarked) | DC50 | ≥ 25 nM |
| CN1N=CC(c2ccc3c(c2)CN(C2CCC(=O)NC2=O)C3=O)C1c1cnn(C2CC2)c1 (centres unmarked) | DC50 | ≥ 25 nM |
| Cn1cc(-c2ccccc2)nc1-c1ccc2c(c1)CN(C1CCC(=O)NC1=O)C2=O (centres unmarked) | DC50 | ≥ 25 nM |
| CN(C)Cc1ccc(-c2c(-c3ccc4c(c3)CN(C3CCC(=O)NC3=O)C4=O)ncn2C)cc1 (centres unmarked) | DC50 | < 25 nM |
| O=C1CCC(N2Cc3cc(-c4cnoc4-c4ccccc4)ccc3C2=O)C(=O)N1 (centres unmarked) | DC50 | ≥ 25 nM |
| CC(C)c1ccccc1-c1c(-c2ccc3c(c2)CN(C2CCC(=O)NC2=O)C3=O)cnn1C (centres unmarked) | DC50 | ≥ 25 nM |
| Cn1ncc(-c2ccc3c(c2)CN(C2CCC(=O)NC2=O)C3=O)c1-c1ccsc1 (centres unmarked) | DC50 | ≥ 25 nM |
| O=C1CCC(N2Cc3cc(-c4cncn4-c4ccccc4)ccc3C2=O)C(=O)N1 (centres unmarked) | DC50 | ≥ 25 nM |
| COc1cccc(-c2c(-c3ccc4c(c3)CN(C3CCC(=O)NC3=O)C4=O)cnn2C)c1 (centres unmarked) | DC50 | ≥ 25 nM |
| O=C1CCC(N2Cc3cc(-c4ncsc4-c4ccccc4)ccc3C2=O)C(=O)N1 (centres unmarked) | DC50 | ≥ 25 nM |
| Cn1ncc(-c2ccc3c(c2)CN(C2CCC(=O)NC2=O)C3=O)c1-c1ccccc1Cl (centres unmarked) | DC50 | ≥ 25 nM |
| CN(C)C(=O)c1ccc(-c2c(-c3ccc4c(c3)CN(C3CCC(=O)NC3=O)C4=O)ncn2C)cc1 (centres unmarked) | DC50 | ≥ 25 nM |
| O=C1CCC(N2Cc3cc(-c4ccn(-c5ccccc5)n4)ccc3C2=O)C(=O)N1 (centres unmarked) | DC50 | ≥ 25 nM |
| Cc1[nH]nc(-c2ccc3c(c2)CN(C2CCC(=O)NC2=O)C3=O)c1-c1ccccc1 (centres unmarked) | DC50 | < 25 nM |
| Cn1ncc(-c2ccc3c(c2)CN(C2CCC(=O)NC2=O)C3=O)c1-c1ccc(S(=O)(=O)NC2CCCCC2)cc1 (centres unmarked) | DC50 | ≥ 25 nM |
| Cn1ncc(-c2ccc3c(c2)CN(C2CCC(=O)NC2=O)C3=O)c1-c1ccc(-n2cccn2)cc1 (centres unmarked) | DC50 | ≥ 25 nM |
| Cn1cnc(-c2ccc3c(c2)CN(C2CCC(=O)NC2=O)C3=O)c1-c1cnn(C2CC2)c1 (centres unmarked) | DC50 | < 25 nM |
| COc1cccc(-c2c(-c3ccc4c(c3)CN(C3CCC(=O)NC3=O)C4=O)ncn2C)c1F (centres unmarked) | DC50 | < 25 nM |
| COc1c(F)cccc1-c1c(-c2ccc3c(c2)CN(C2CCC(=O)NC2=O)C3=O)cnn1C (centres unmarked) | DC50 | ≥ 25 nM |
| Cc1ccc(-c2c(-c3ccc4c(c3)CN(C3CCC(=O)NC3=O)C4=O)cnn2C)c(C#N)c1 (centres unmarked) | DC50 | ≥ 25 nM |
| COc1ccccc1-c1c(-c2ccc3c(c2)CN(C2CCC(=O)NC2=O)C3=O)ncn1C (centres unmarked) | DC50 | ≥ 25 nM |

Value source: patent US20240158370A1
